molecular target: human histamine H3 receptor (hH3R) (Homo sapiens, UniProt Q9Y5N1); construct: expressed in transfected cells; host or cells: HEK293T cells, transient transfection (hH3R in pcDEF3); test: BRET between Venus-Gβ1γ2 and masGRK3ct-Nluc to measure hH3R-induced Gαi2 activation in HEK293T cells; type: cell-based; details: antagonist 10 µM
Sequence (Q9Y5N1 whole entry): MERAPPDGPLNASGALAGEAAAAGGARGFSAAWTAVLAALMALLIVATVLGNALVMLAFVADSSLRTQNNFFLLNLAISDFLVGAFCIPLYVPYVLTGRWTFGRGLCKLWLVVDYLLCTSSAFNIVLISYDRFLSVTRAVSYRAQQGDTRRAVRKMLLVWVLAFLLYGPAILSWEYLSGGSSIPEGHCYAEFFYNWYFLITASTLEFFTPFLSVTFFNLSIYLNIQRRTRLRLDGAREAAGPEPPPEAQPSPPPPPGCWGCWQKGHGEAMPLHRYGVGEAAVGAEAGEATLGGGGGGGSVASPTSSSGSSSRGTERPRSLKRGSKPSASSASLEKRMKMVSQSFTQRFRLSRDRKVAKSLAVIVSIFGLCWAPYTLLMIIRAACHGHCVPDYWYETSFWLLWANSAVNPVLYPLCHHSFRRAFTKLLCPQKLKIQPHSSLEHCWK
Value Kind: inhibition of Venus-Gβ1γ2 recruitment to masGRK3ct-Nluc in response to 1 µM histamine

Compound: CN1CCN(C(=O)c2cc3cc(Cl)ccc3[nH]2)CC1 [JNJ7777120]
Measurement: ineffective
//
Compound: CNC(=NCCSCc1csc(N=C(N)N)n1)NC#N [tiotidine]
Measurement: ineffective
//
Compound: COc1ccc(CN(CCN(C)C)c2ccccn2)cc1 [mepyramine]
Measurement: ineffective

====

molecular target: human histamine H3 receptor (hH3R) (Homo sapiens, UniProt Q9Y5N1); construct: expressed in transfected cells; host or cells: HEK293T cells, transient transfection (hH3R in pcDEF3); assay: BRET between Venus-Gβ1γ2 and masGRK3ct-Nluc to measure hH3R-induced Gαi2 activation in HEK293T cells; type: cell-based
Value Kind: pEC50
Worth noting: pEC50 values are minus log10 of concentrations stated in mol/L.

Return pEC50 for the following compound: N=C(N)SCCc1cnc[nH]1 9.60
